Source listed as patent US11028090B2.

Assay System: BRD4 (BD1+BD2) bromodomain (Homo sapiens (Human))
Experimental Protocol: BRD4 binding inhibition (AlphaScreen, GST-BRD4 vs tetraacetylated histone H4 peptide)
Experimental Context: GST-BRD4 (BD1+BD2) vs biotinylated acetyl-histone H4 peptide, AlphaScreen; read-out: BRD4 IC50
Where a name gives a salt, the structure may show the parent alone.
Endpoint Name: IC50 (nM)
Reply numerically in nM, unit not repeated.

These solved cases illustrate the format of a correct answer.
>  <Compound>
Cc1nnc2c(NCCCCNC(=O)OCc3ccccc3)nc3ccccc3n12

>  <IC50 / nM>
55

$$$$
>  <Compound>
Cc1noc(C)c1-c1ccc2c(c1)nc(NCCCCNC(=O)[C@@H](O)C(C)C)c1nnc(C)n12

>  <IC50 / nM>
7

$$$$
>  <Compound>
Cc1nnc2c(NCCCCNC(=O)CC(C)C)nc3cc(NS(C)(=O)=O)ccc3n12

>  <IC50 / nM>
8

$$$$
>  <Compound>
COc1ccc2c(nc(NCCCCN)c3nnc(C)n32)c1Cl [Example 460, dihydrochloride]

>  <IC50 / nM>
12

$$$$

Form field IC50 for item COc1cc2nc(NCCCCNC(=O)COC(C)=O)c3nnc(C)n3c2cc1OC on BRD4 (BD1+BD2) bromodomain (Homo sapiens (Human)): 27

Form field IC50 for item COc1cc2nc(NCCCCNC(=O)Cc3cccs3)c3nnc(C)n3c2cc1OC on BRD4 (BD1+BD2) bromodomain (Homo sapiens (Human)): 14

Form field IC50 for item COCCOc1ccc2c(c1)nc(NCCCCNC(=O)c1cccc(F)c1)c1nnc(C)n12 on BRD4 (BD1+BD2) bromodomain (Homo sapiens (Human)): 12

Form field IC50 for item COc1cc2nc(NCCCCNC(=O)c3ccc(F)cc3)c3nnc(C)n3c2cc1OC on BRD4 (BD1+BD2) bromodomain (Homo sapiens (Human)): 47
